- assayedSystem: T1, TNFR1 (Homo sapiens, UniProt P19438)
- T1 chain: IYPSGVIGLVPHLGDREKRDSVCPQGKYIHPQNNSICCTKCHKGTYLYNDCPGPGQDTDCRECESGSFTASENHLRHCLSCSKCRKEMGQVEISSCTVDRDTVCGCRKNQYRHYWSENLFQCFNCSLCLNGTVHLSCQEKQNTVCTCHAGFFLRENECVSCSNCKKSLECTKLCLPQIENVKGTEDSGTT
- assayProtocol: yeast display SC50
measurementLabel: apparent Kd (screen) (pM)
Use pM as the unit, but write only the number.

Item H24L (designed binder) SMEEEVEKAAKEYEKKKKEAIEKLLEKLKAKDKEAAERFLKELEEAAKEYAKDEAKTMSEEEAKRRAKKYKEKVLLSELSEEEQKEIKEAEEKLVRTILKYVEEAAK : provide apparent Kd (screen)
539

Consider the binder E86A (designed binder) SMEEEVEKAAKEYEKKKKEAIEKHLEKLKAKDKEAAERFLKELEEAAKEYAKDEAKTMSEEEAKRRAKKYKEKVLLSELSEEEQKAIKEAEEKLVRTILKYVEEAAK and give its recorded apparent Kd (screen).
653

Return apparent Kd (screen) for the following binder: K48S (designed binder) SMEEEVEKAAKEYEKKKKEAIEKHLEKLKAKDKEAAERFLKELEEAASEYAKDEAKTMSEEEAKRRAKKYKEKVLLSELSEEEQKEIKEAEEKLVRTILKYVEEAAK
446

Identify measured apparent Kd (screen) corresponding to Q84I (designed binder) SMEEEVEKAAKEYEKKKKEAIEKHLEKLKAKDKEAAERFLKELEEAAKEYAKDEAKTMSEEEAKRRAKKYKEKVLLSELSEEEIKEIKEAEEKLVRTILKYVEEAAK
2730

Specify measured apparent Kd (screen) for K15R (designed binder) SMEEEVEKAAKEYERKKKEAIEKHLEKLKAKDKEAAERFLKELEEAAKEYAKDEAKTMSEEEAKRRAKKYKEKVLLSELSEEEQKEIKEAEEKLVRTILKYVEEAAK .
593

Tell us which apparent Kd (screen) value is on record for I21C (designed binder) SMEEEVEKAAKEYEKKKKEACEKHLEKLKAKDKEAAERFLKELEEAAKEYAKDEAKTMSEEEAKRRAKKYKEKVLLSELSEEEQKEIKEAEEKLVRTILKYVEEAAK
490

Answer with the recorded apparent Kd (screen) for the binder listed here: A106G (designed binder) SMEEEVEKAAKEYEKKKKEAIEKHLEKLKAKDKEAAERFLKELEEAAKEYAKDEAKTMSEEEAKRRAKKYKEKVLLSELSEEEQKEIKEAEEKLVRTILKYVEEAGK
790

Supply recorded apparent Kd (screen) for T97P (designed binder) SMEEEVEKAAKEYEKKKKEAIEKHLEKLKAKDKEAAERFLKELEEAAKEYAKDEAKTMSEEEAKRRAKKYKEKVLLSELSEEEQKEIKEAEEKLVRPILKYVEEAAK here.
7070

In one line, give reported apparent Kd (screen) of the entry I87D (designed binder) SMEEEVEKAAKEYEKKKKEAIEKHLEKLKAKDKEAAERFLKELEEAAKEYAKDEAKTMSEEEAKRRAKKYKEKVLLSELSEEEQKEDKEAEEKLVRTILKYVEEAAK .
15200

Entry A63N (designed binder) SMEEEVEKAAKEYEKKKKEAIEKHLEKLKAKDKEAAERFLKELEEAAKEYAKDEAKTMSEEENKRRAKKYKEKVLLSELSEEEQKEIKEAEEKLVRTILKYVEEAAK needs its apparent Kd (screen) filled in; supply it.
6430

Answer with the recorded apparent Kd (screen) for the binder listed here: E22V (designed binder) SMEEEVEKAAKEYEKKKKEAIVKHLEKLKAKDKEAAERFLKELEEAAKEYAKDEAKTMSEEEAKRRAKKYKEKVLLSELSEEEQKEIKEAEEKLVRTILKYVEEAAK
1160

Supply reported apparent Kd (screen) belonging to this binder: E22M (designed binder) SMEEEVEKAAKEYEKKKKEAIMKHLEKLKAKDKEAAERFLKELEEAAKEYAKDEAKTMSEEEAKRRAKKYKEKVLLSELSEEEQKEIKEAEEKLVRTILKYVEEAAK
539

Please indicate apparent Kd (screen) recorded for D32A (designed binder) SMEEEVEKAAKEYEKKKKEAIEKHLEKLKAKAKEAAERFLKELEEAAKEYAKDEAKTMSEEEAKRRAKKYKEKVLLSELSEEEQKEIKEAEEKLVRTILKYVEEAAK
1400

Give the value of apparent Kd (screen) reported for the following: E26P (designed binder) SMEEEVEKAAKEYEKKKKEAIEKHLPKLKAKDKEAAERFLKELEEAAKEYAKDEAKTMSEEEAKRRAKKYKEKVLLSELSEEEQKEIKEAEEKLVRTILKYVEEAAK
22200

Could you please provide reported apparent Kd (screen) for A90S (designed binder) SMEEEVEKAAKEYEKKKKEAIEKHLEKLKAKDKEAAERFLKELEEAAKEYAKDEAKTMSEEEAKRRAKKYKEKVLLSELSEEEQKEIKESEEKLVRTILKYVEEAAK ? Thanks!
790

Give the reported apparent Kd (screen) for this binder. E81S (designed binder) SMEEEVEKAAKEYEKKKKEAIEKHLEKLKAKDKEAAERFLKELEEAAKEYAKDEAKTMSEEEAKRRAKKYKEKVLLSELSSEEQKEIKEAEEKLVRTILKYVEEAAK
790
